EXPERIMENTAL TARGET: UniProt:Q99572
Sequence (Q99572 whole entry): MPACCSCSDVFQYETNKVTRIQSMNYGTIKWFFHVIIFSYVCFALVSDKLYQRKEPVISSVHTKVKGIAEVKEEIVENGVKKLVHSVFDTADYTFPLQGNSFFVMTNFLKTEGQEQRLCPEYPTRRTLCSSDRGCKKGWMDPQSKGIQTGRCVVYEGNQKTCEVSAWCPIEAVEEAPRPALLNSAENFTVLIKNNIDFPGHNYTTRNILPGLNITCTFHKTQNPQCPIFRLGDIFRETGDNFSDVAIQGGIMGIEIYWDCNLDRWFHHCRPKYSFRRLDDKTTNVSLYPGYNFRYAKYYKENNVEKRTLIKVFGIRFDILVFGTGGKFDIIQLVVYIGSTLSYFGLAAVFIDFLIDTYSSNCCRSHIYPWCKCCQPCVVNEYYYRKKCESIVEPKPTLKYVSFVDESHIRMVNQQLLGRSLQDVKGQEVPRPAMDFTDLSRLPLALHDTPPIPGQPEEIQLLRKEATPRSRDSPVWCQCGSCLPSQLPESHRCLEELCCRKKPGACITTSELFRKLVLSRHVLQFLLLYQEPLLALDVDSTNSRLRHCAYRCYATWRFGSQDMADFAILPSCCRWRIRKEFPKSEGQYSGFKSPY
PROTOCOL DETAILS: Human P2X7 functional assay (Ca2+ influx, Fluo-4, FDSS)
PARTICULARS: antagonistic activity with respect to the human P2X7 receptor; BzATP final concentration 80 microM

{"COMPOUND": "Cc1cc(Cl)cc(Cl)c1CNC(=O)C1(F)CCC(O)(CN)c2ncccc21 (stereo not drawn) [Example 45]", "EXPERIMENTAL TARGET": "UniProt:Q99572", "IC50": "< 50 nM"}
{"COMPOUND": "O=C(NCc1cc(F)c(F)cc1Cl)[C@]1(F)CC[C@@H](O)c2ncccc21 [Example 123]", "EXPERIMENTAL TARGET": "UniProt:Q99572", "IC50": "101 to 300 nM"}
{"COMPOUND": "Cc1cc(Cl)cc(Cl)c1CNC(=O)[C@H]1C[C@@H](O)c2ncccc21 [Example 98]", "EXPERIMENTAL TARGET": "UniProt:Q99572", "IC50": "101 to 300 nM"}
{"COMPOUND": "O=C(NCC1(N2CCOCC2)CCCCC1)[C@]1(F)CC[C@H](O)c2ncccc21 [Example 192]", "EXPERIMENTAL TARGET": "UniProt:Q99572", "IC50": "< 50 nM"}
{"COMPOUND": "COC[C@]1(O)CC[C@@](F)(C(=O)NCc2ccc(F)cc2Cl)c2cccnc21 (relative stereo) [Example 42]", "EXPERIMENTAL TARGET": "UniProt:Q99572", "IC50": "< 50 nM"}
{"COMPOUND": "O=C(NCc1ccc(Cl)cc1F)[C@H]1CC[C@@H](O)c2ncccc21 [Example 96]", "EXPERIMENTAL TARGET": "UniProt:Q99572", "IC50": "1000 to 3000 nM"}
{"COMPOUND": "O=C(NCc1ccc(Cl)cc1F)[C@@]1(F)CC[C@@H](O)c2ncccc21 [Example 145]", "EXPERIMENTAL TARGET": "UniProt:Q99572", "IC50": "101 to 300 nM"}
{"COMPOUND": "CO[C@H]1CC[C@@](F)(C(=O)NCc2ccc(F)c(F)c2F)c2cccnc21 [Example 339]", "EXPERIMENTAL TARGET": "UniProt:Q99572", "IC50": "< 50 nM"}
{"COMPOUND": "O=C(NC1CC1c1ccc(Cl)cc1Cl)[C@]1(F)CC[C@H](O)c2ncccc21 (stereo partly drawn) [Example 238]", "EXPERIMENTAL TARGET": "UniProt:Q99572", "IC50": "< 50 nM"}
{"COMPOUND": "O=C(NCC1(c2ccc(F)cc2)CC1)[C@]1(F)CC[C@H](O)c2ncccc21 [Example 220]", "EXPERIMENTAL TARGET": "UniProt:Q99572", "IC50": "301 to 1000 nM"}
{"COMPOUND": "Cc1cc(Cl)cc(Cl)c1CNC(=O)[C@]1(F)CC[C@@H](O)c2ncccc21 [Example 100]", "EXPERIMENTAL TARGET": "UniProt:Q99572", "IC50": "< 50 nM"}
{"COMPOUND": "Cc1cc(Cl)cc(Cl)c1CNC(=O)[C@@]1(F)CC[C@H](O)c2ncccc21 [Example 99]", "EXPERIMENTAL TARGET": "UniProt:Q99572", "IC50": "< 50 nM"}
{"COMPOUND": "O=C(NCc1cc(F)c(F)c(F)c1)[C@]1(F)CC[C@H](O)c2ncccc21 [Example 200]", "EXPERIMENTAL TARGET": "UniProt:Q99572", "IC50": "50 to 100 nM"}
{"COMPOUND": "O=C(NCc1ccc(F)cc1Cl)[C@]1(F)CC[C@H](OCCO)c2ncccc21 [Example 344]", "EXPERIMENTAL TARGET": "UniProt:Q99572", "IC50": "< 50 nM"}
{"COMPOUND": "COCC1(O)CCC(F)(C(=O)NCc2cccc(C(F)(F)F)c2Cl)c2cccnc21 (stereo not drawn) [Example 40]", "EXPERIMENTAL TARGET": "UniProt:Q99572", "IC50": "< 50 nM"}
{"COMPOUND": "O=C(NCc1ccc(Cl)cc1Cl)[C@@]1(F)CC[C@@H](O)c2ncccc21 [Example 132]", "EXPERIMENTAL TARGET": "UniProt:Q99572", "IC50": "< 50 nM"}
{"COMPOUND": "O=C(NCc1ccc(Cl)cc1Cl)C1(F)CCC(O)c2ncccc21 (stereo not drawn) [Example 22]", "EXPERIMENTAL TARGET": "UniProt:Q99572", "IC50": "< 50 nM"}
{"COMPOUND": "O=C(NCc1c(F)cc(F)cc1F)[C@]1(F)CC[C@H](O)c2ncccc21 [Example 180]", "EXPERIMENTAL TARGET": "UniProt:Q99572", "IC50": "< 50 nM"}
{"COMPOUND": "C[C@]1(O)CC[C@@](F)(C(=O)NCc2ncc(Cl)cc2Cl)c2cccnc21 [Example 272]", "EXPERIMENTAL TARGET": "UniProt:Q99572", "IC50": "< 50 nM"}
{"COMPOUND": "O=C1CC[C@@](F)(C(=O)NCc2cccc(F)c2Cl)c2cccnc21 [Example 250]", "EXPERIMENTAL TARGET": "UniProt:Q99572", "IC50": "101 to 300 nM"}
{"COMPOUND": "Cc1cnc2c(c1)[C@](F)(C(=O)NCc1ccc(F)cc1Cl)CC[C@@H]2O [Example 244]", "EXPERIMENTAL TARGET": "UniProt:Q99572", "IC50": "1000 to 3000 nM"}

###

EXPERIMENTAL TARGET: rat P2X7 (Rattus norvegicus (Rat))
Sequence (Q64663 whole entry): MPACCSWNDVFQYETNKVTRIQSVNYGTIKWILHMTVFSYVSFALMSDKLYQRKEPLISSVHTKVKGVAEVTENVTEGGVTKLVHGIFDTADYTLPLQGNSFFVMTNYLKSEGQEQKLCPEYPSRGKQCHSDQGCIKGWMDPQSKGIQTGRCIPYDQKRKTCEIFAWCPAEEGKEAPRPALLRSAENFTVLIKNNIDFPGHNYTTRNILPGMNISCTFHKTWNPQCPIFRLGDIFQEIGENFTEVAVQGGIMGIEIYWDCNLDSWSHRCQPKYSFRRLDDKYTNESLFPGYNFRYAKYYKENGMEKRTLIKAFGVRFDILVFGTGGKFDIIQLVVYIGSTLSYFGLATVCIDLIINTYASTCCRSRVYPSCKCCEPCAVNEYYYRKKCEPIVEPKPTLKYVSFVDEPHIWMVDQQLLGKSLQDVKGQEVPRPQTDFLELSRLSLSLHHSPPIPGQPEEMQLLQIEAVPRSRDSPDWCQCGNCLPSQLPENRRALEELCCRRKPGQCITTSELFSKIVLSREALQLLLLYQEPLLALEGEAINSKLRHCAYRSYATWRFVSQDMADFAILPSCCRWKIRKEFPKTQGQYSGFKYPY
PROTOCOL DETAILS: Rat P2X7 functional assay (Ca2+ influx, Fluo-4, FDSS)
PARTICULARS: HEK293 cells stably expressing rat P2X7; BzATP final 10 microM; 7-point dose-response; read-out: Antagonistic activities with respect to the rat P2X7 receptor (IC50)
Description: Rat P2X7 Functional Assay The functional activity of compounds was determined by measuring changes in intracellular calcium concentration using a Ca^2+-sensitive fluorescent dye, Fluo-4 (Molecular Probes). The changes in fluorescent signal were monitored by the cell imaging technology by Hamamatsu Photonics's Functional Drug Screening System (FDSS). Increases in intracellular Ca^2+ concentration were readily detected upon activation with BzATP. […]
Consider the following compounds and their measured IC50 readings.
READOUT KIND: IC50

{"COMPOUND": "C[C@]1(O)CC[C@@](F)(C(=O)NCc2c(F)cc(Cl)cc2Cl)c2cccnc21", "RESULT": "< 1 µM"}
{"COMPOUND": "Cc1cc(Cl)cc(Cl)c1CNC(=O)C1CCC(O)c2ncccc21 (centres unmarked)", "RESULT": "< 1 µM"}
{"COMPOUND": "C[C@]1(O)CC[C@@](F)(C(=O)NCc2ccc(F)c(Cl)c2F)c2cccnc21", "RESULT": "< 1 µM"}
{"COMPOUND": "CO[C@H]1CC[C@@](F)(C(=O)NCc2ccc(C(F)(F)F)cc2Cl)c2cccnc21", "RESULT": "< 1 µM"}
{"COMPOUND": "CS(=O)(=O)C[C@]1(O)CC[C@@](F)(C(=O)NCc2ccc(Cl)cc2Cl)c2cccnc21", "RESULT": "< 1 µM"}
{"COMPOUND": "O=C(NCc1cccc(Cl)c1Cl)[C@@]1(F)CC[C@@H](O)c2ncccc21", "RESULT": "< 1 µM"}
{"COMPOUND": "O=C(NCc1ccc(F)cc1Cl)[C@@H]1CC[C@H](O)c2ncccc21", "RESULT": "< 1 µM"}
{"COMPOUND": "CS(=O)(=O)C1CC[C@@](F)(C(=O)NCc2ccc(Cl)cc2Cl)c2cccnc21 (some centres unmarked)", "RESULT": "< 1 µM"}
{"COMPOUND": "O=C(NCc1c(F)cc(Cl)cc1F)[C@]1(F)CC[C@H](O)c2ncccc21", "RESULT": "< 1 µM"}
{"COMPOUND": "C[C@]1(O)CC[C@@](F)(C(=O)NCc2ccc(Cl)cc2Cl)c2cccnc21", "RESULT": "< 1 µM"}
{"COMPOUND": "O=C(NCc1ccc(Cl)cc1Cl)[C@]1(F)CC[C@](O)(CO)c2ncccc21", "RESULT": "< 1 µM"}
{"COMPOUND": "C[C@@H](NC(=O)[C@]1(F)CC[C@](C)(O)c2ncccc21)c1ccc(F)cc1Cl", "RESULT": "< 1 µM"}
{"COMPOUND": "O=C(NCc1ccc(F)cc1Cl)[C@]1(F)CC[C@H](OCCO)c2ncccc21", "RESULT": "< 1 µM"}
{"COMPOUND": "O=C(NCc1ccc(Cl)cc1Cl)C1(F)CCC(O)(CO)c2ncccc21 (centres unmarked)", "RESULT": "< 1 µM"}
{"COMPOUND": "O=C(NCc1ccc(Cl)cc1Cl)[C@]1(F)CC[C@@](O)(CO)c2ncccc21", "RESULT": "< 1 µM"}
{"COMPOUND": "Cc1cc(Cl)cc(Cl)c1CNC(=O)[C@]1(F)CC[C@@H](O)c2ncccc21", "RESULT": "< 1 µM"}
{"COMPOUND": "O=C(NCc1c(Cl)cc(Cl)cc1CO)[C@]1(F)CC[C@H](OCCO)c2ncccc21", "RESULT": "< 1 µM"}
